- Test system: A-375
- experiment notes: Photocytotoxicity against human A375 cells assessed as cell viability after 24 hrs in presence of light irradiation by MTT assay
- Type: functional, cell-based
- condition notes: A-375, light or radiation study
Kindly state IC50 for each of the entries shown.
Give bare numbers, in nM.

Guide cases for IC50, answers given:
OCCOCCNc1c(F)c(F)c(-c2c3nc(c(-c4c(F)c(F)c(NCCOCCO)c(F)c4F)c4ccc([nH]4)c(-c4c(F)c(F)c(NCCOCCO)c(F)c4F)c4nc(c(-c5c(F)c(F)c(NCCOCCO)c(F)c5F)c5ccc2[nH]5)C2Cc5c(CO)c(CO)nn5CC42)C=C3)c(F)c1F (centres undefined) ... 13
COC(=O)c1nn2c(c1C(=O)OC)CC1c3nc(c(-c4c(F)c(F)c(F)c(F)c4F)c4ccc([nH]4)c(-c4c(F)c(F)c(F)c(F)c4F)c4nc(c(-c5c(F)c(F)c(F)c(F)c5F)c5ccc([nH]5)c3-c3c(F)c(F)c(F)c(F)c3F)C=C4)C1C2 (centres undefined) ... 6680

For each entry beneath this line, provide reported IC50.
1. COC(=O)c1nn2c(c1C(=O)OC)CC1c3nc(c(-c4c(F)c(F)c(NCCOCCO)c(F)c4F)c4ccc([nH]4)c(-c4c(F)c(F)c(NCCOCCO)c(F)c4F)c4nc(c(-c5c(F)c(F)c(NCCOCCO)c(F)c5F)c5ccc([nH]5)c3-c3c(F)c(F)c(NCCOCCO)c(F)c3F)C=C4)C1C2 (centres undefined)
2. OCc1nn2c(c1CO)CC1c3nc(c(-c4c(F)c(F)cc(F)c4F)c4ccc([nH]4)c(-c4c(F)c(F)cc(F)c4F)c4nc(c(-c5c(F)c(F)cc(F)c5F)c5ccc([nH]5)c3-c3c(F)c(F)cc(F)c3F)C=C4)C1C2 (centres undefined)

Response:
913
72
